The origin of these recorded values is ChEMBL document CHEMBL6121051.

measurement-description: Toxicity against human RBC assessed as hemolysis rate at 128 ug/ml incubated for 1 hr
Type: cell-based, Erythrocyte
test-conditions: red blood cells (RBC), dose 128 µg/ml, read-out: Activity
Residues, ends and D or L forms follow the SMILES beside them. Groups on a side chain read outwards from the residue. *: point of attachment. Butyryl = CCCC(=O)*
value-type: hemolysis at 1 h, 128 ug/ml

INSERT INTO assay_data (compound, obs_value) VALUES
  ('CCCC(=O)NCC(=O)NCC(=O)NCC(=O)N[C@@H](CCCCNC(=O)[C@@H]1CCCN1C(=O)[C@H](CCCNC(=N)N)NC(=O)[C@@H]1CCCN1C(=O)[C@@H](N)CCCNC(=N)N)C(=O)N[C@@H](CCCCNC(=O)[C@@H]1CCCN1C(=O)[C@H](CCCNC(=N)N)NC(=O)[C@@H]1CCCN1C(=O)[C@@H](N)CCCNC(=N)N)C(=O)N[C@@H](CCCNC(=N)N)C(=O)N1CCC[C@H]1C(=O)N[C@@H](CCCNC(=N)N)C(=O)N1CCC[C@H]1C(N)=O (Butyryl-GGGK([Pro-Arg-Pro-Arg])K([Pro-Arg-Pro-Arg])RPRP-NH2)', '< 2%');

---

Measured hemolysis at 1 h, 128 ug/ml accompanies every entry in the list below.
measurement-description: Toxicity against human RBC assessed as hemolysis rate at 128 ug/ml incubated for 1 hr
Assay type: cell-based, Erythrocyte
test-conditions: red blood cells (RBC), dose 128 µg/ml, read-out: Activity
Residues, ends and D or L forms follow the SMILES beside them. Groups on a side chain read outwards from the residue. *: point of attachment. Lauroyl = CCCCCCCCCCCC(=O)*; Octanoyl = CCCCCCCC(=O)*
value-type: hemolysis at 1 h, 128 ug/ml

INSERT INTO assay_data (compound, obs_value) VALUES
  ('CCCCCCCCCCCC(=O)NCC(=O)NCC(=O)NCC(=O)N[C@@H](CCCCNC(=O)[C@@H]1CCCN1C(=O)[C@H](CCCNC(=N)N)NC(=O)[C@@H]1CCCN1C(=O)[C@@H](N)CCCNC(=N)N)C(=O)N[C@@H](CCCCNC(=O)[C@@H]1CCCN1C(=O)[C@H](CCCNC(=N)N)NC(=O)[C@@H]1CCCN1C(=O)[C@@H](N)CCCNC(=N)N)C(=O)N[C@@H](CCCNC(=N)N)C(=O)N1CCC[C@H]1C(=O)N[C@@H](CCCNC(=N)N)C(=O)N1CCC[C@H]1C(N)=O (Lauroyl-GGGK([Pro-Arg-Pro-Arg])K([Pro-Arg-Pro-Arg])RPRP-NH2)', '< 2%'),
  ('CCCCCCCC(=O)NCC(=O)NCC(=O)NCC(=O)N[C@@H](CCCCNC(=O)[C@@H]1CCCN1C(=O)[C@H](CCCNC(=N)N)NC(=O)[C@@H]1CCCN1C(=O)[C@@H](N)CCCNC(=N)N)C(=O)N[C@@H](CCCCNC(=O)[C@@H]1CCCN1C(=O)[C@H](CCCNC(=N)N)NC(=O)[C@@H]1CCCN1C(=O)[C@@H](N)CCCNC(=N)N)C(=O)N[C@@H](CCCNC(=N)N)C(=O)N1CCC[C@H]1C(=O)N[C@@H](CCCNC(=N)N)C(=O)N1CCC[C@H]1C(N)=O (Octanoyl-GGGK([Pro-Arg-Pro-Arg])K([Pro-Arg-Pro-Arg])RPRP-NH2)', '< 2%');

---

measurement-description: Cytotoxicity against human HEK293T cells assessed as cell survival rate at 128 ug/ml incubated for 4 hrs by MTT assay
Type: toxicity, cell-based, HEK-293T
test-conditions: dose 128 µg/ml, read-out: Activity
Residues, ends and D or L forms follow the SMILES beside them. Groups on a side chain read outwards from the residue. *: point of attachment. Lauroyl = CCCCCCCCCCCC(=O)*; Octanoyl = CCCCCCCC(=O)*; Butyryl = CCCC(=O)*
value-type: viability at 4 h, 128 ug/ml (%)

INSERT INTO measurements (compound, value_type, obs_value) VALUES
  ('CCCCCCCC(=O)NCC(=O)NCC(=O)NCC(=O)N[C@@H](CCCCNC(=O)[C@@H]1CCCN1C(=O)[C@H](CCCNC(=N)N)NC(=O)[C@@H]1CCCN1C(=O)[C@@H](N)CCCNC(=N)N)C(=O)N[C@@H](CCCCNC(=O)[C@@H]1CCCN1C(=O)[C@H](CCCNC(=N)N)NC(=O)[C@@H]1CCCN1C(=O)[C@@H](N)CCCNC(=N)N)C(=O)N[C@@H](CCCNC(=N)N)C(=O)N1CCC[C@H]1C(=O)N[C@@H](CCCNC(=N)N)C(=O)N1CCC[C@H]1C(N)=O (Octanoyl-GGGK([Pro-Arg-Pro-Arg])K([Pro-Arg-Pro-Arg])RPRP-NH2)', 'viability at 4 h, 128 ug/ml', 95),
  ('CCCCCCCCCCCC(=O)NCC(=O)NCC(=O)NCC(=O)N[C@@H](CCCCNC(=O)[C@@H]1CCCN1C(=O)[C@H](CCCNC(=N)N)NC(=O)[C@@H]1CCCN1C(=O)[C@@H](N)CCCNC(=N)N)C(=O)N[C@@H](CCCCNC(=O)[C@@H]1CCCN1C(=O)[C@H](CCCNC(=N)N)NC(=O)[C@@H]1CCCN1C(=O)[C@@H](N)CCCNC(=N)N)C(=O)N[C@@H](CCCNC(=N)N)C(=O)N1CCC[C@H]1C(=O)N[C@@H](CCCNC(=N)N)C(=O)N1CCC[C@H]1C(N)=O (Lauroyl-GGGK([Pro-Arg-Pro-Arg])K([Pro-Arg-Pro-Arg])RPRP-NH2)', 'viability at 4 h, 128 ug/ml', 95),
  ('CCCC(=O)NCC(=O)NCC(=O)NCC(=O)N[C@@H](CCCCNC(=O)[C@@H]1CCCN1C(=O)[C@H](CCCNC(=N)N)NC(=O)[C@@H]1CCCN1C(=O)[C@@H](N)CCCNC(=N)N)C(=O)N[C@@H](CCCCNC(=O)[C@@H]1CCCN1C(=O)[C@H](CCCNC(=N)N)NC(=O)[C@@H]1CCCN1C(=O)[C@@H](N)CCCNC(=N)N)C(=O)N[C@@H](CCCNC(=N)N)C(=O)N1CCC[C@H]1C(=O)N[C@@H](CCCNC(=N)N)C(=O)N1CCC[C@H]1C(N)=O (Butyryl-GGGK([Pro-Arg-Pro-Arg])K([Pro-Arg-Pro-Arg])RPRP-NH2)', 'viability at 4 h, 128 ug/ml', 95);

---

Measured MIC accompanies every entry in the list below.
System: Candida albicans
measurement-description: Antifungal activity against Candida albicans 2.3989 assessed as inhibition of fungal growth incubated for 48 hrs
Assay type: functional
Residues, ends and D or L forms follow the SMILES beside them. Groups on a side chain read outwards from the residue. *: point of attachment. Lauroyl = CCCCCCCCCCCC(=O)*; Octanoyl = CCCCCCCC(=O)*; Butyryl = CCCC(=O)*
value-type: MIC (µM)

INSERT INTO assay_data (compound, unit_label, result_modifier, obs_value) VALUES
  ('CCCCCCCCCCCC(=O)NCC(=O)NCC(=O)NCC(=O)N[C@@H](CCCCNC(=O)[C@@H]1CCCN1C(=O)[C@H](CCCNC(=N)N)NC(=O)[C@@H]1CCCN1C(=O)[C@@H](N)CCCNC(=N)N)C(=O)N[C@@H](CCCCNC(=O)[C@@H]1CCCN1C(=O)[C@H](CCCNC(=N)N)NC(=O)[C@@H]1CCCN1C(=O)[C@@H](N)CCCNC(=N)N)C(=O)N[C@@H](CCCNC(=N)N)C(=O)N1CCC[C@H]1C(=O)N[C@@H](CCCNC(=N)N)C(=O)N1CCC[C@H]1C(N)=O (Lauroyl-GGGK([Pro-Arg-Pro-Arg])K([Pro-Arg-Pro-Arg])RPRP-NH2)', 'µM', '=', 64),
  ('OC(Cn1cncn1)(Cn1cncn1)c1ccc(F)cc1F', 'µM', '=', 4),
  ('CCCC(=O)NCC(=O)NCC(=O)NCC(=O)N[C@@H](CCCCNC(=O)[C@@H]1CCCN1C(=O)[C@H](CCCNC(=N)N)NC(=O)[C@@H]1CCCN1C(=O)[C@@H](N)CCCNC(=N)N)C(=O)N[C@@H](CCCCNC(=O)[C@@H]1CCCN1C(=O)[C@H](CCCNC(=N)N)NC(=O)[C@@H]1CCCN1C(=O)[C@@H](N)CCCNC(=N)N)C(=O)N[C@@H](CCCNC(=N)N)C(=O)N1CCC[C@H]1C(=O)N[C@@H](CCCNC(=N)N)C(=O)N1CCC[C@H]1C(N)=O (Butyryl-GGGK([Pro-Arg-Pro-Arg])K([Pro-Arg-Pro-Arg])RPRP-NH2)', 'µM', '>', 128),
  ('CCCCCCCC(=O)NCC(=O)NCC(=O)NCC(=O)N[C@@H](CCCCNC(=O)[C@@H]1CCCN1C(=O)[C@H](CCCNC(=N)N)NC(=O)[C@@H]1CCCN1C(=O)[C@@H](N)CCCNC(=N)N)C(=O)N[C@@H](CCCCNC(=O)[C@@H]1CCCN1C(=O)[C@H](CCCNC(=N)N)NC(=O)[C@@H]1CCCN1C(=O)[C@@H](N)CCCNC(=N)N)C(=O)N[C@@H](CCCNC(=N)N)C(=O)N1CCC[C@H]1C(=O)N[C@@H](CCCNC(=N)N)C(=O)N1CCC[C@H]1C(N)=O (Octanoyl-GGGK([Pro-Arg-Pro-Arg])K([Pro-Arg-Pro-Arg])RPRP-NH2)', 'µM', '>', 128);
